tested on: HCC4006; test: Antiproliferative against human HCC4006 cells expressing MTAP clone 2 assessed as […] treated for 7 days with replenishment of medium for every 48 hrs by MTT assay (reference value: 0.24 uM); format: functional, cell-based
metric: IC50 (nM)
Respond numerically; units are nM and should not be typed.

Q: Entry CC(C)Oc1ccc(-c2c[nH]cc2CN(C)CCN)cc1 , system HCC4006: what IC50 was measured?
Result: 560

###

test system: HCC4006; assay: Antiproliferative against human HCC4006 cells expressing MTAP clone 1 assessed as […] treated for 7 days with replenishment of medium for every 48 hrs by MTT assay (reference value: 0.24 uM); assay type: functional, cell-based
metric: IC50 (nM)
Respond numerically; units are nM and should not be typed.

Q: Entry CC(C)Oc1ccc(-c2c[nH]cc2CN(C)CCN)cc1 , system HCC4006: what IC50 was measured?
Result: 470
